tested-on: EGFR(D770_N771insSVD) expressing Ba/F3 stable cell line (Homo sapiens, UniProt P00533, DUP768-770, cells depend on it)
Sequence (P00533 with tags, fused parts or gaps DUP768-770): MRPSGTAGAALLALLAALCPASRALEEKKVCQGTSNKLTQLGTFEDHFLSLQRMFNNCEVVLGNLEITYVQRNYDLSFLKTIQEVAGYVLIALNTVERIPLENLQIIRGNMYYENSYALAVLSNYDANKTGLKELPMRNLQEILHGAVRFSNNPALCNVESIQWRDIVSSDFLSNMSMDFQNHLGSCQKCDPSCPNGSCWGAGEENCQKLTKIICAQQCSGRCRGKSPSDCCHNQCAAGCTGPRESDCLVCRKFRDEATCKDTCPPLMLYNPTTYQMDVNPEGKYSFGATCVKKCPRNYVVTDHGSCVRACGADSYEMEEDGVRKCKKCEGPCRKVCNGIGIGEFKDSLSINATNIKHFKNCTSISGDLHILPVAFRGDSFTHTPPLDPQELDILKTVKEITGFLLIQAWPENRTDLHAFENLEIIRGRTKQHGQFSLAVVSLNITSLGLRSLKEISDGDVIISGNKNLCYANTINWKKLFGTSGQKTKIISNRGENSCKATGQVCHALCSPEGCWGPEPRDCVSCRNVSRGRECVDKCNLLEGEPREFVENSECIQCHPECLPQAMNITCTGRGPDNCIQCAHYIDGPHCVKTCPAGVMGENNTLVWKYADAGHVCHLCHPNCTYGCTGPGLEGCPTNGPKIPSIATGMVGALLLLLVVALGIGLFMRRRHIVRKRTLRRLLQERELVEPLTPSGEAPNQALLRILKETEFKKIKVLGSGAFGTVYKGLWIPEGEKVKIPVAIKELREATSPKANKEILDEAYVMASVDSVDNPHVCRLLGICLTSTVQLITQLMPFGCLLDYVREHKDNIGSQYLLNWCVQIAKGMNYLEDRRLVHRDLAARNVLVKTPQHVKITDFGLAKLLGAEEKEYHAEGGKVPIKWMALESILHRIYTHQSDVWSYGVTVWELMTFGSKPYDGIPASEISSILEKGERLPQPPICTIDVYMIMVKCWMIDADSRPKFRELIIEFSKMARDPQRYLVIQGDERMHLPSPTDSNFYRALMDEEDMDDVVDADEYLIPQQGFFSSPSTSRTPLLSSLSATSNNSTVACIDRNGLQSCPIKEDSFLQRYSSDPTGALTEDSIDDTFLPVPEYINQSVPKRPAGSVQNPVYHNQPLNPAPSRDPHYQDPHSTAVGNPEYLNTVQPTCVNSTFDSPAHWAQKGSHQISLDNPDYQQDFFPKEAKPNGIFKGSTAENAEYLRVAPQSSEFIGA
procedure-details: Cellular proliferation (Alamar Blue) assay, EGFR D770_N771insSVD Ba/F3
Format: cell-based
measurement-setup: 72 hr, read-out: D770 IC50
Counter-ions that a name gives are not always drawn.
property-label: GI50 (µM)
Numbers only, in µM.

{"compound": "C=CC(=O)Nc1ccc(F)c(Nc2nc(Nc3cnn(C)c3)ncc2-c2cccc(C(F)(F)F)c2)c1", "units-symbol": "µM", "GI50": 0.101}
{"compound": "C=CC(=O)Nc1ccc(F)c(Nc2nc(Nc3ccc(F)cc3)ncc2-c2ccc(C(F)(F)F)cc2)c1 [Compound 122, trifluoroacetate]", "units-symbol": "µM", "GI50": 1.99}
{"compound": "C=CC(=O)Nc1cc(Nc2nc(Nc3cnn(C)c3)ncc2-c2ccc(C(F)(F)F)cc2)ccn1", "units-symbol": "µM", "GI50": 6.02}
{"compound": "C=CC(=O)Nc1ccc(F)c(N(C)c2nc(Nc3cnn(C)c3)ncc2-c2ccc(C(F)(F)F)cc2)c1", "units-symbol": "µM", "GI50": 0.952}
{"compound": "C=CC(=O)Nc1cccc(Oc2nc(Nc3cnn(C)c3)ncc2-c2ccc(C(F)F)cc2)c1", "units-symbol": "µM", "GI50": 0.037}

Could you report GI50 for every entry in the following list?
1. [2H]C([2H])=CC(=O)Nc1ccc(F)c(Nc2nc(Nc3cnn(C([2H])([2H])[2H])c3)ncc2-c2ccc(C(F)(F)F)cc2)c1
2. C=CC(=O)Nc1ccc(F)c(Nc2nc(Nc3cnn(C)c3)ncc2-c2ccc(C(=O)NC)cc2)c1

OUT:
0.109
7.87

====

Please go through the items and note down their GI50.
tested-on: EGFR (H773insNPH) expressing Ba/F3 stable cell line (Homo sapiens, UniProt P00533, DUP771-773, cells depend on it)
Sequence (P00533 with tags, fused parts or gaps DUP771-773): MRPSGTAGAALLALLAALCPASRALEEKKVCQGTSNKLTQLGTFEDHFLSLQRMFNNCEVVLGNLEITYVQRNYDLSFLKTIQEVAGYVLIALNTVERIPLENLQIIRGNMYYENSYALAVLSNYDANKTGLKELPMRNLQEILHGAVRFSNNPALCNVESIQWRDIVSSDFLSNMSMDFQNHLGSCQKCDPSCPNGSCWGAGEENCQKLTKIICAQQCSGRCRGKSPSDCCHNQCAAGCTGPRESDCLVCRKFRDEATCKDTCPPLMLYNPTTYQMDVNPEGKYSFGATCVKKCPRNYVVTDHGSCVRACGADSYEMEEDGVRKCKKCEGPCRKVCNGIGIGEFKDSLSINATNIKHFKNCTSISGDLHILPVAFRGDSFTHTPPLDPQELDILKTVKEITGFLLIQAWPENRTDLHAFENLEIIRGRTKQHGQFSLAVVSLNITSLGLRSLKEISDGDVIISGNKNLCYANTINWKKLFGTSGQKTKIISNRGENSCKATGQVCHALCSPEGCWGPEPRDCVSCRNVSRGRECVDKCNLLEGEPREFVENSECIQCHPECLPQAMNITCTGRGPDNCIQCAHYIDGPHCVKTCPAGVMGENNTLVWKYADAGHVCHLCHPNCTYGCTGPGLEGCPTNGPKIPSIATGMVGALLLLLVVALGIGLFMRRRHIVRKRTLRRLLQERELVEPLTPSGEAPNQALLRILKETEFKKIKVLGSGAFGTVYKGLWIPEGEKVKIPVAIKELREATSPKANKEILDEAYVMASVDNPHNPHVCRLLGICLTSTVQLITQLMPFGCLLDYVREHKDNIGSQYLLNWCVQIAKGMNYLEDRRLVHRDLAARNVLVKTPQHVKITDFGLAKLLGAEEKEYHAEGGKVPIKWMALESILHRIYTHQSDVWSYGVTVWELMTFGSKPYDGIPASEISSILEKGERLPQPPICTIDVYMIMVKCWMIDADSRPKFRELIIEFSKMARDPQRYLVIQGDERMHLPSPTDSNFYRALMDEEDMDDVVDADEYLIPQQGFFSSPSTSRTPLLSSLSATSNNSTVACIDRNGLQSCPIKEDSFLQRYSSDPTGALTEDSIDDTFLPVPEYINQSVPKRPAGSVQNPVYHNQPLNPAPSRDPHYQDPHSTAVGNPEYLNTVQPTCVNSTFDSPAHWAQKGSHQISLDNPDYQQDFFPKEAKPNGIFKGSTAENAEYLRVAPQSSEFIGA
procedure-details: Cellular proliferation (Alamar Blue) assay, EGFR H773insNPH Ba/F3
Assay type: cell-based
measurement-setup: 72 hr, read-out: NPH IC50
Counter-ions that a name gives are not always drawn.
One number for each entry, in nM.

{"compound": "C=CC(=O)Nc1ccc(F)c(Nc2nc(Nc3cnn(C)c3)ncc2-c2ccc(F)cc2)c1 [Compound 63]", "units-symbol": "nM", "GI50": 116}
{"compound": "C=CC(=O)Nc1ccc(F)c(Nc2nc(Nc3cnn(C)c3)ncc2-c2cccc(C(F)(F)F)c2)c1 [Compound 89]", "units-symbol": "nM", "GI50": 58}
{"compound": "C=CC(=O)Nc1ccc(F)c(Nc2nc(Nc3cnn(C)c3)ncc2-c2ccnc(OC(F)F)c2)c1 [Compound 71]", "units-symbol": "nM", "GI50": 103}
{"compound": "C=CC(=O)Nc1cncc(Nc2nc(Nc3cnn(C)c3)ncc2-c2ccc(C(F)(F)F)cc2)c1 [Compound 195]", "units-symbol": "nM", "GI50": 180}
{"compound": "C=CC(=O)Nc1ccc(F)c(Nc2nc(Nc3cnn(C)c3)ncc2-c2ccnc(F)c2)c1 [Compound 82]", "units-symbol": "nM", "GI50": 57}
{"compound": "C=CC(=O)Nc1ccc(F)c(Nc2nc(Nc3cn(C)nc3F)ncc2-c2ccc(C(F)(F)F)cc2)c1 [Compound 87]", "units-symbol": "nM", "GI50": 234}
{"compound": "C=CC(=O)Nc1cccc(Oc2nc(Nc3cnn(C)c3)ncc2-c2ccc(C(F)F)cc2)c1 [Compound 105]", "units-symbol": "nM", "GI50": 75}
{"compound": "C=CC(=O)Nc1cccc(Oc2nc(Nc3cnn(C)c3)ncc2-c2cncc(C(F)(F)F)c2)c1 [Compound 104]", "units-symbol": "nM", "GI50": 101}
{"compound": "Cn1cc(Nc2ncc(-c3ccc(C(F)(F)F)cc3)c(Nc3cc(NC(=O)CCl)ccc3F)n2)cn1 [Compound 252]", "units-symbol": "nM", "GI50": 2810}
{"compound": "C=CC(=O)Nc1cccc(Nc2nc(Nc3cnn(C)c3)ncc2-c2ccc(C(F)(F)F)cc2)c1 [Compound 111]", "units-symbol": "nM", "GI50": 103}

Could you report GI50 for every entry in the following list?
1. C=CC(=O)Nc1ccc(F)c(Nc2nc(Nc3ccc(CN(C)C)cc3)ncc2-c2ccc(C(F)(F)F)cc2)c1 [Compound 45, trifluoroacetate]
2. C=CC(=O)Nc1ccc(F)c(Nc2nc(Nc3cnn(C)c3)ncc2-c2cccnc2)c1 [Compound 84]
3. C=CC(=O)Nc1cccc(Nc2nc(Nc3cnn(C)c3)ncc2-c2ccc(F)nc2)c1 [Compound 74]

OUT:
[149, 50, 43]
